# assay-system: human C-terminal DNMT3A (623-908a.a.) (Homo sapiens)
# Construct: The human C-terminal DNMT3A (623-908a.a.); made in house
# Sequence (Q9Y6K1 627-912 limits assumed): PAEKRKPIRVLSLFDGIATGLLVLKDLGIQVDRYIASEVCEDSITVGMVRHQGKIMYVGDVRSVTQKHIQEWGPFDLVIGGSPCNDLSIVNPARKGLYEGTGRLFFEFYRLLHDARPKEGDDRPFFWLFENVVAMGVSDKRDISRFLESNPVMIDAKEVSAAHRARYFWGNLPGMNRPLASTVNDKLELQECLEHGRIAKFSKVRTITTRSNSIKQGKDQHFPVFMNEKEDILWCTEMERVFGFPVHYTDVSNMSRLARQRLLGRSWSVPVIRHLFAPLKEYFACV
# assay-protocol: hDNMT3A assay (restriction-based fluorescence assay)
# Type: biochemical
# setup-conditions: read-out: hDNMT 3A inhibition, Inhibition (%) 10 μM
inhibition at 10 µM reference
Answer with a number only, understood to be in %.

COc1ccc2cc1Oc1ccc(cc1)C[C@@H]1NCCc3cc(OC)c4c(c31)Oc1cc3c(cc1O4)CCN(C)[C@H]3C2 [Trilobine (1), trilobine]	88
CNC(=O)N1CCc2cc3c4cc2[C@@H]1Cc1ccc(OC)c(c1)Oc1ccc(cc1)C[C@H]1c2c(cc(OC)c(c2O4)O3)CCN1C(=O)NC [Product 43]	24
COc1ccc2cc1Oc1ccc(cc1)C[C@H]1c3c(cc(OC)c4c3Oc3cc5c(cc3O4)CCN(C)[C@H]5C2)CCN1C#N [Product 15]	46
COc1ccc2cc1Oc1ccc(cc1)CC1c3c(cc(OC)c4c3Oc3cc5c(cc3O4)CCN(C)[C@H]5C2)CCN1C(=O)C1CCC(CN2C(=O)C=CC2=O)CC1 (some centres unmarked) [Product 30]	66
COc1ccc2cc1Oc1ccc(cc1)C[C@H]1c3c(cc(OC)c4c3Oc3cc5c(cc3O4)CCN(C)[C@H]5C2)CCN1CCCn1cnc2c(N)ncnc21 [Product 28]	18

Q: Output measured inhibition at 10 µM for this item: COc1ccc2cc1Oc1ccc(cc1)C[C@H]1c3c(cc(OC)c4c3Oc3cc5c(cc3O4)CCN(CCCn3cnc4c(N)ncnc43)[C@H]5C2)CCN1C [Product 24]
Ans: 42

Q: Output measured inhibition at 10 µM for this item: CCN(CC)CCCNC(=S)N1CCc2cc(OC)c3c4c2[C@@H]1Cc1ccc(cc1)Oc1cc(ccc1OC)C[C@H]1c2cc(c(cc2CCN1C)O3)O4 [Product 12]
Ans: 78

Q: Output measured inhibition at 10 µM for this item: CCN(CC)CCCNC(=S)N1CCc2cc3c4cc2[C@@H]1Cc1ccc(OC)c(c1)Oc1ccc(cc1)C[C@H]1c2c(cc(OC)c(c2O4)O3)CCN1C(=S)NCCCN(CC)CC [Product 41]
Ans: 94

Q: Output measured inhibition at 10 µM for this item: CNC(=S)N1CCc2cc(OC)c3c4c2[C@@H]1Cc1ccc(cc1)Oc1cc(ccc1OC)C[C@H]1c2cc(c(cc2CCN1C)O3)O4 [Product 14]
Ans: 93

Q: Output measured inhibition at 10 µM for this item: CCN(CC)CCCNC(=O)N1CCc2cc3c4cc2[C@@H]1Cc1ccc(OC)c(c1)Oc1ccc(cc1)C[C@H]1c2c(cc(OC)c(c2O4)O3)CCN1C(=O)NCCCN(CC)CC [Product 48]
Ans: 82

Q: Output measured inhibition at 10 µM for this item: C=CC(=O)N1CCc2cc(OC)c3c4c2C1Cc1ccc(cc1)Oc1cc(ccc1OC)C[C@H]1c2cc(c(cc2CCN1C)O3)O4 (some centres unmarked) [Product 31]
Ans: 43

Q: Output measured inhibition at 10 µM for this item: COc1ccc2cc1Oc1ccc(cc1)C[C@H]1c3c(cc(OC)c4c3Oc3cc5c(cc3O4)CCN(C)[C@H]5C2)CCN1CCC#N [Product 16]
Ans: 56

Q: Output measured inhibition at 10 µM for this item: COc1ccc2cc1Oc1ccc(cc1)C[C@H]1c3c(cc(OC)c4c3Oc3cc5c(cc3O4)CCN(C)[C@H]5C2)CCN1S(C)(=O)=O [Product 13]
Ans: 39
